// data source = PubChem BioAssay (NCI)

system: IGROV1 ovarian; test: NCI tumour cell line growth inhibition, 48 h
Readout: TGI

Example entries begin here.
- Compound: "CCN(CC)C(=S)Nc1ccc(-c2cc3ccc(O)cc3oc2=O)cc1"
  Measured on: "IGROV1 ovarian"
  TGI: "> 100 µM"
- Compound: "CC(=O)N1N=C(c2ccc(Nc3ccnc4cc(Cl)ccc34)cc2)CC1c1ccc(Cl)cc1 (configuration not stated)"
  Measured on: "IGROV1 ovarian"
  TGI: "> 100 µM"
- Compound: "O=C1NC(=O)C(=Nc2cccc3c(=O)[nH][nH]c(=O)c23)C(c2nc3ccccc3s2)C1=O (configuration not stated)"
  Measured on: "IGROV1 ovarian"
  TGI: "> 100 µM"
- Compound: "O=C(CN1CCN(c2cc3c(cc2F)c(=O)c(C(=O)O)cn3C2CC2)CC1)Nc1nc(-c2ccc(Cl)cc2)cs1"
  Measured on: "IGROV1 ovarian"
  TGI: "> 100 µM"

Consider the compound `Clc1ccc(-c2csc(Nc3cccc(-c4csc(-c5ccccc5)n4)c3)n2)cc1` . State its measured TGI.
39 µM

Please list TGI recorded for the compound `Clc1ccc(-c2nnc(-c3cccc4ccccc34)o2)cc1Cl`
53.9 µM

Report TGI for `Cc1cc2cc3ccc(N(C)C)cc3nc2cc1N`
2.9 µM

Using the record for COc1cc(C2SC(C)C(=O)N2c2ccc(-c3csc(NS(=O)(=O)c4ccc(Cl)c(OC)c4)n3)cc2)ccc1O (configuration not stated) , state its measured TGI.
> 100 µM

State its TGI for this compound: O=[N+]([O-])c1ccc(Cl)c(C2CC(c3cccc4ccccc34)=Nc3ccccc3S2)c1 (configuration not stated)
> 100 µM

Give TGI for the following compound: CN(CCO)CCCC1COc2ccccc2O1 (configuration not stated)
> 100 µM

Write down TGI measured for item `CN(C)c1ccc(C=C2C(=O)N(c3ccccc3)N(c3ccccc3)C2=O)cc1`
> 100 µM

Could you please provide reported TGI for COc1cccc(/C=N/NC(=S)NC2CC3CCC2C3)c1O (configuration not stated) ? Thanks!
35.1 µM

Please supply the value of reported TGI for the item COC(=O)/C(=N/Nc1cccc(Cl)c1)C(C(=O)C(=O)Nc1cccc(Cl)c1C)c1nc2ccccc2nc1C (configuration not stated)
> 100 µM

Respond only with TGI recorded for `CS(=O)(=O)NNS(=O)(=O)c1ccccc1`
> 100 µM

Identify measured TGI associated with O=C(O)C1CCCCC1c1c2ccc(=O)c(O)c-2oc2c(O)c(O)ccc12 (configuration not stated)
> 100 µM

Supply recorded TGI for `COC(=O)C(=CNC(N)=O)C(=O)OC` here.
> 100 µM

Tell me measured TGI for `Cc1ccc2c(=O)c(C(=O)Nn3c(C)csc3=S)c[nH]c2n1` please.
> 100 µM

Return reported TGI. Input compound: `O=C1c2ccccc2C(=O)c2c(O)c(NCCCNCCO)cc(O)c21`
28.8 µM

Recall and state the measured TGI for `COc1cc2oc(=O)cc(C)c2cc1O` .
> 100 µM

---

Overview of recorded GI50 for various molecules
test system: PC-3 prostate; assay: NCI tumour cell line growth inhibition, 48 h

- Molecule: "CC(=O)N1N=C(c2ccc(Nc3ccnc4cc(Cl)ccc34)cc2)CC1c1ccc(Cl)cc1 (stereo not given)"
  Result: "3.02 µM"
- Molecule: "Cc1cc2cc3ccc(N(C)C)cc3nc2cc1N"
  Result: "0.992 µM"

For PC-3 prostate, give GI50 of the listed molecule: COc1ccc(C(c2ccc(OCCN(C)C)cc2)c2cc3ccccc3c3ccccc23)cc1 (stereo not given)
1.76 µM

Name the value of GI50 reported for CCN1C(=O)CCCc2c1ccc(Nc1ncc(Cl)c(NC3[C@@H](C(N)=O)[C@@H]4C=C[C@H]3C4)n1)c2OC (stereo not given in full) when tested on PC-3 prostate.
1.49 µM

# return GI50 for CCC(c1ccc(OC)cc1)C(CC)c1ccc(O)c(CN2CCN(C)CC2)c1 (stereo not given) , test system: PC-3 prostate
6.73 µM
